Sourced from patent US20250197351A1

assay: Mouse pharmacokinetic (PK) study, parent compound and psilocin metabolite in plasma; format: in vivo; details: male, C57Bl/6, mouse, plasma, po, 3 mg/kg, parent compound; 3 mg/kg p.o.; AUC0-tlast used; if M37 (i.v. group) is considered as an outlier; each animal
MEASURE NAME: bioavailability
I'd appreciate it if you included the unit after the number.

stdin: Query: bioavailability; subject: CN(C)CCc1c[nH]c2cccc(OC(=O)c3ccc(Br)cc3)c12
stdout: 3.02%

====

assay: Mouse pharmacokinetic (PK) study, parent compound and psilocin metabolite in plasma; assay type: in vivo; conditions: male, C57Bl/6, mouse, plasma, po, 1 mg/kg, parent compound; 1 mg/kg p.o.; AUC0-tlast used; M37 (i.v. group) considered as an outlier; mean ± SD
MEASURE NAME: bioavailability (%)
Write the value in % as a bare number.

stdin: Please report the recorded bioavailability for CN(C)CCc1c[nH]c2cccc(OC(=O)c3ccc(Br)cc3)c12 [C(I)] .
stdout: 2.3
